# Target: Xanthine dehydrogenase/oxidase (Homo sapiens, UniProt P47989)
# Sequence (P47989 whole entry): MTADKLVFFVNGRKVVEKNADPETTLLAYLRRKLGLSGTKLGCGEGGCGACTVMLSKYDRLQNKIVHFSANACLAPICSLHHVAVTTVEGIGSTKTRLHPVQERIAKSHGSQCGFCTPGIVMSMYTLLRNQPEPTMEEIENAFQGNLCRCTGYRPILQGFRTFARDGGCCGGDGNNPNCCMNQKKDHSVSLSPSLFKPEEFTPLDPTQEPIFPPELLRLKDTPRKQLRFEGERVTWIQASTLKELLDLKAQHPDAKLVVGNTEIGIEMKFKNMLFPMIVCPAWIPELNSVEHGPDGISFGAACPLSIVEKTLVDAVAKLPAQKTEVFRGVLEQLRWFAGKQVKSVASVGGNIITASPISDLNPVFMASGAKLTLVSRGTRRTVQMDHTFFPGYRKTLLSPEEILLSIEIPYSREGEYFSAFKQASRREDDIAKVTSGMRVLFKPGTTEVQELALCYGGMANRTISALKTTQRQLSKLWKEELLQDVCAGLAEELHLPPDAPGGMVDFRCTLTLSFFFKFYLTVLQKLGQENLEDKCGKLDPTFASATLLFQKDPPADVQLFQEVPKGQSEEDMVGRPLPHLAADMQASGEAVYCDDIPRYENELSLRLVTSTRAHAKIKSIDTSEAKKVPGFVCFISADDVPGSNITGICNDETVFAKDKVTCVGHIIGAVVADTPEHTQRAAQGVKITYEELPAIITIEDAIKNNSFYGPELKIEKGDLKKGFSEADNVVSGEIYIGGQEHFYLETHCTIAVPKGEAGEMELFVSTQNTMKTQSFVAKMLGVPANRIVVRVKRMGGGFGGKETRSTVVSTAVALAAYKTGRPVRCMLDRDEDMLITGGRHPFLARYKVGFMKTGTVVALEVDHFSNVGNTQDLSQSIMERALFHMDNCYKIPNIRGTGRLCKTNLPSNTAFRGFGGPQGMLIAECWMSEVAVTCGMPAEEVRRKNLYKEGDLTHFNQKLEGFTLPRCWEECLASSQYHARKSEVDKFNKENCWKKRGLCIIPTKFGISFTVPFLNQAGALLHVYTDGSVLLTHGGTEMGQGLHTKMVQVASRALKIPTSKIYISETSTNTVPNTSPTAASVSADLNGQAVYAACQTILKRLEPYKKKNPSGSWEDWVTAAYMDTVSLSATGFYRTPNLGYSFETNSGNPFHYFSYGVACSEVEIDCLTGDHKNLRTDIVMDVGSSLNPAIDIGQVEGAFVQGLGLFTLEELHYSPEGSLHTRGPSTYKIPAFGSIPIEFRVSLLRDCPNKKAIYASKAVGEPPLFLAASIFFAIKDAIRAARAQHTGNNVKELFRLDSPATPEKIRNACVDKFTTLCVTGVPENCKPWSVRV
# Test protocol: Inhibition of Xanthine oxidase (unknown origin)
pIC50: −log10 of the molar value.

# Smiles str, Target, pIC50
data = [
    ("O/N=C(\\Cc1ccc(Br)cc1)c1ccc(O)cc1O", "Xanthine dehydrogenase/oxidase (Homo sapiens, UniProt P47989)", 5.48),
    ("O=c1c2cc(O)c(O)cc2oc2cc(OCc3ccccc3)cc(O)c12", "Xanthine dehydrogenase/oxidase (Homo sapiens, UniProt P47989)", 5.48),
    ("CCn1c(=O)sc2cc(-c3ccc(C(=O)O)c(O)c3)ccc21", "Xanthine dehydrogenase/oxidase (Homo sapiens, UniProt P47989)", 7.92),
    ("CC(C)=CCc1c(O)ccc2c1O[C@H](c1ccc(O)cc1)CC2=O", "Xanthine dehydrogenase/oxidase (Homo sapiens, UniProt P47989)", 4.84),
    ("Cc1nc(-c2ccc(OCC(C)C)c(C#N)c2)sc1C(=O)O", "Xanthine dehydrogenase/oxidase (Homo sapiens, UniProt P47989)", 8.00),
]

###

# Target: Solute carrier family 22 member 12 (Homo sapiens, UniProt Q96S37)
# Sequence (Q96S37 whole entry): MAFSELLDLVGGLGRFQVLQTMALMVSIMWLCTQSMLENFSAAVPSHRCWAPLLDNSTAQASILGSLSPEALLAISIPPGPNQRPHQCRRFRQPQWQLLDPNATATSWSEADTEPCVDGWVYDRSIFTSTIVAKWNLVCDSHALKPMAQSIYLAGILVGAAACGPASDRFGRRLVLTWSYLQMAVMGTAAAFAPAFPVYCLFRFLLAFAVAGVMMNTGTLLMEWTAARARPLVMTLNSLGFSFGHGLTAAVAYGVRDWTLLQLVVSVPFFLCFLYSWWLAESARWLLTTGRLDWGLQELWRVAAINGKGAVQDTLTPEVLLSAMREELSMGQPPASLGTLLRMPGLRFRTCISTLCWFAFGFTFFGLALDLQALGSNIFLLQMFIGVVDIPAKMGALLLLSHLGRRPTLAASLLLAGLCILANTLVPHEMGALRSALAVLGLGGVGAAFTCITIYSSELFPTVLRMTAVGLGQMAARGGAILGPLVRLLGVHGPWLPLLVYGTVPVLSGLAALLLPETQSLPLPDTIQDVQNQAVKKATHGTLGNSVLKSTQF
# Test protocol: Inhibition of human URAT1 stably expressed in HEK293 cells by measuring 14C-uric acid uptake pre-incubated for 15 mins followed by 14C-uric acid addition and measured for 30 mins by liquid scintillation counter analysis
# Type: cell-based
pIC50: −log10 of the molar value.

# Smiles str, pIC50
records = [
    ("CCCc1ccc(Cn2c(Br)nnc2SCC(=O)O)c2ccccc12", 7.04),
]

###

# Target: Xanthine dehydrogenase/oxidase (Homo sapiens, UniProt P47989)
# Test protocol: Inhibition of xanthine oxidase (unknown origin) by absorbance based assay

# Molecule, Target, IC50 [nM]
records = [
    ("COc1ccc(C2CC(=O)c3c(O)cc(O)cc3O2)cc1O (stereo unspecified)", "Xanthine dehydrogenase/oxidase (Homo sapiens, UniProt P47989)", 840),
]

###

# Target: Solute carrier family 22 member 12 (Homo sapiens, UniProt Q96S37)
# Sequence (Q96S37 whole entry): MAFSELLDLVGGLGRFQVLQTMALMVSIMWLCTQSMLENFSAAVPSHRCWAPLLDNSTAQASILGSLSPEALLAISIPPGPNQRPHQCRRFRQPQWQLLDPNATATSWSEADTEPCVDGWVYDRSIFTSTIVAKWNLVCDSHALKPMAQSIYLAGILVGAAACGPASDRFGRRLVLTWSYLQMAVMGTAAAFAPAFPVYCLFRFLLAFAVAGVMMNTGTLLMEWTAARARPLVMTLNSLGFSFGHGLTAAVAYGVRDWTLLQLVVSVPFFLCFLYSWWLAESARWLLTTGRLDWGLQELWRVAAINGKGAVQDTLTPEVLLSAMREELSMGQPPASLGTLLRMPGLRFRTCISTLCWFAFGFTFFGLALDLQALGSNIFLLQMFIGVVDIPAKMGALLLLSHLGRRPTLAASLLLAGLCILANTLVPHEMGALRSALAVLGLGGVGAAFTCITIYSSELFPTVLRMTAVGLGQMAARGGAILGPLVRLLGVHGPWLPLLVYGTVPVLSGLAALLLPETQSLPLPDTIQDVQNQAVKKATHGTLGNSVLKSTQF
# Test protocol: Inhibition of URAT1 (unknown origin)
pIC50: −log10 of the molar value.
Entries annotated with measured pIC50

# Compound, pIC50
measured = [
    ("CCn1c(=O)sc2cc(-c3ccc(C(=O)O)c(O)c3)ccc21", 4.52),
    ("CC(C)=CCc1c(O)ccc2c1O[C@H](c1ccc(O)cc1)CC2=O [ISOBAVACHIN]", 6.62),
    ("O=C(O)C1(Sc2ccnc3ccc(Br)cc23)CCC1 [SHR-4640]", 7.28),
    ("O/N=C(\\Cc1ccc(Br)cc1)c1ccc(O)cc1O", 6.84),
]
